measuredOn: X-IAP BIR3 (Homo sapiens, UniProt P98170)
Construct: 0.5 μM X-IAP BIR3
Sequence (P98170 241-356 limits assumed): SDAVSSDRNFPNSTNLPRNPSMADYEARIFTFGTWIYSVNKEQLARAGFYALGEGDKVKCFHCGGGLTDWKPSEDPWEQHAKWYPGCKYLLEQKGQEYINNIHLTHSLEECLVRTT
protocolText: Fluorescence polarization peptide binding assay, X-IAP BIR3
assaySetup: 0.5 μM X-IAP BIR3, 5 nM AVP-diPhe-FAM probe, one hour incubation
Method: Polarization experiments were performed on an Analyst HT 96-384 reader (Molecular Devices Corp.) in order to determine dissociation constants (Kd) between IAP protein BIR domains and the fluorescent probe. […] The reactions were read after an incubation time of 1 hour at room temperature with standard cut-off filters for the fluorescein fluorophore (λex=485 nm; λem=530 nm) in 384-well black plates (Molecular Devices Corp.). […] The apparent Kd values were determined from the EC50 values. […]
measurementLabel: pIC50
# pIC50 is unitless: minus log10 of the molar concentration; print number only

| compoundString | measuredOn | pIC50 |
| --- | --- | --- |
| CN[C@@H](C)C(=O)N[C@H](C(=O)N[C@H](C(=O)Nc1snnc1-c1ccccc1)C(C)(C)OC)C1CCCCC1 | X-IAP BIR3 (Homo sapiens, UniProt P98170) | 4.95 |
| CN[C@@H](C)C(=O)N[C@H](C(=O)N[C@H](C(=O)Nc1snnc1-c1ccccc1)C(C)(C)F)C1CCCCC1 | X-IAP BIR3 (Homo sapiens, UniProt P98170) | 5.05 |
| CN[C@@H](C)C(=O)N[C@H](C(=O)N(C)[C@H](C(=O)Nc1snnc1-c1ccccc1)C(C)C)C1CCCCC1 | X-IAP BIR3 (Homo sapiens, UniProt P98170) | 4.58 |
| CN[C@@H](C)C(=O)N[C@H](C(=O)N[C@H](C(=O)Nc1snnc1-c1ccccc1)C(C)(C)SCNC(C)=O)C1CCCCC1 | X-IAP BIR3 (Homo sapiens, UniProt P98170) | 4.65 |
| CN[C@@H](C)C(=O)N[C@H](C(=O)N(C)[C@H](C(=O)Nc1snnc1-c1ccccc1)C(C)(C)SC)C1CCCCC1 | X-IAP BIR3 (Homo sapiens, UniProt P98170) | 4.85 |
| CN[C@@H](C)C(=O)N[C@H](C(=O)N[C@H](C(=O)Nc1snnc1-c1ccccc1)C(C)(C)S(C)(=O)=O)C1CCCCC1 | X-IAP BIR3 (Homo sapiens, UniProt P98170) | 4.44 |

Record "CN[C@@H](C)C(=O)N[C@H](C(=O)N[C@H](C(=O)Nc1snnc1-c1ccccc1)C(F)(F)F)C1CCCCC1" . Reported pIC50: 4.87

---

measuredOn: C-IAP1 BIR3 (Homo sapiens, UniProt Q13490)
Construct: 0.2 μM C-IAP1 BIR3
Sequence (Q13490 253-363 limits assumed): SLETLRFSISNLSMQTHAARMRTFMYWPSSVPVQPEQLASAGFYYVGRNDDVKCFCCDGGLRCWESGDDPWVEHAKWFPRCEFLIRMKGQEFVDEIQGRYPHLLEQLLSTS
protocolText: Fluorescence polarization peptide binding assay, C-IAP1 BIR3
assaySetup: 0.2 μM C-IAP1 BIR3, 5 nM AVP-diPhe-FAM probe, one hour incubation
measurementLabel: pIC50
Please report pIC50 as the negative decimal logarithm of the molar concentration, giving only the number.

Sample answers from the record:
| compound | pIC50 |
| --- | --- |
| CN[C@@H](C)C(=O)N[C@H](C(=O)N[C@H](C(=O)Nc1snnc1-c1ccccc1)C(C)(C)SCNC(C)=O)C1CCCCC1 [Compound 21] | 6.69 |
| CN[C@@H](C)C(=O)N[C@H](C(=O)N[C@H](C(=O)Nc1snnc1-c1ccccc1)C1(C)CCOCC1)C1CCCCC1 [Compound 3] | 6.61 |

The recorded pIC50 for CN[C@@H](C)C(=O)N[C@H](C(=O)N(C)[C@H](C(=O)Nc1ccccc1-c1ncccn1)C(C)C)C1CCCCC1 [Compound 7] is 4.85

Sure, the documented pIC50 for CN[C@@H](C)C(=O)N[C@H](C(=O)N[C@H](C(=O)Nc1cc(C)nn1-c1ccccc1)C(C)(C)SCc1ccc(OC)cc1)C1CCCCC1 [Compound 16] is 6.13

pIC50 for CN[C@@H](C)C(=O)N[C@H](C(=O)N[C@H](C(=O)Nc1snnc1-c1ccccc1)C(C)(C)OC)C1CCCCC1 [Compound 2] is 6.72

// field: pIC50; key: CN[C@@H](C)C(=O)N[C@H](C(=O)N[C@H](C(=O)NCC(c1ccccc1)c1ccccc1)C(C)(C)SCc1ccc(OC)cc1)C1CCCCC1 [Compound 17] ; value = 5.19

---

measuredOn: ML/X-IAP chimera MLXBIR3SG (Homo sapiens, UniProt Q96CA5, S150G)
Sequence (Q96CA5 with tags, fused parts or gaps S150G): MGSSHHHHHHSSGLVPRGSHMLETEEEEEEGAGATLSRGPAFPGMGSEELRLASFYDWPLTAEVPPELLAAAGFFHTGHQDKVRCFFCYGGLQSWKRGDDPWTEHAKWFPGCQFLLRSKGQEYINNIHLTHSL
protocolText: Fluorescence polarization peptide binding assay, MLXBIR3SG
assaySetup: 0.06 μM MLXBIR3SG, 5 nM AVP-diPhe-FAM probe, one hour incubation
Method: The following fluorescence polarization experiments used a chimeric BIR domain referred to as MLXBIR3SG in which 11 of 110 residues correspond to those found in XIAP BIR3, while the remainder correspond to ML-IAP BIR. […] Polarization experiments were performed on an Analyst HT 96-384 reader (Molecular Devices Corp.) in order to determine dissociation constants (Kd) between IAP protein BIR domains and the fluorescent probe. […]
pIC50: −log10 of the molar value.
Would you mind labelling by pIC50? At or over 6 is t, under is f.

Some entries whose results are on file:
| compound | assignedCategory |
| --- | --- |
| CN[C@@H](C)C(=O)N[C@H](C(=O)N[C@H](C(=O)NCC(c1ccccc1)c1ccccc1)C(C)(C)O)C(C)C [Compound 12] | f |
| CN[C@@H](C)C(=O)N[C@H](C(=O)N(C)[C@H](C(=O)Nc1ccccc1-c1ncccn1)C(C)C)C1CCCCC1 [Compound 7] | f |
| CN[C@@H](C)C(=O)N[C@H](C(=O)N[C@H](C(=O)NCC(c1ccccc1)c1ccccc1)C(C)(C)SC)C1CCCCC1 [Compound 13] | f |
| CN[C@@H](C)C(=O)N[C@H](C(=O)N[C@H](C(=O)NCC(c1ccccc1)c1ccccc1)C(C)(C)SCNC(C)=O)C1CCCCC1 [Compound 18] | f |
| CN[C@@H](C)C(=O)N[C@H](C(=O)N[C@H](C(=O)Nc1snnc1-c1ccccc1)C1(C)CCOCC1)C1CCCCC1 [Compound 3] | t |
| CN[C@@H](C)C(=O)N[C@H](C(=O)N[C@H](C(=O)Nc1snnc1-c1ccccc1)C(C)(C)OC)C1CCCCC1 [Compound 2] | t |
| CN[C@H](C)C(=O)N[C@@H](C(=O)N[C@@H](C(=O)NCC(c1ccccc1)c1ccccc1)C(C)(C)C)C1CCCCC1 [Compound 15] | f |
| CN[C@@H](C)C(=O)N[C@H](C(=O)N[C@H](C(=O)Nc1snnc1-c1ccccc1)C(C)(C)SC)C1CCCCC1 [Compound 20] | t |

Query block: Tell me whether pIC50 is at least 6 here: CN[C@@H](C)C(=O)N[C@H](C(=O)N(C)[C@H](C(=O)Nc1snnc1-c1ccccc1)C(C)(C)C)C1CCCCC1 [Compound 24]
Result block: f

Query block: For this compound, is measured pIC50 6 or higher? CN[C@@H](C)C(=O)N[C@H](C(=O)N[C@H](C(=O)NCC(c1ccccc1)c1ccccc1)C(C)(C)SCc1ccc(OC)cc1)C1CCCCC1 [Compound 17]
Result block: f

Query block: Textbook exercise: given the entry CN[C@@H](C)C(=O)N[C@H](C(=O)N[C@H](C(=O)Nc1snnc1-c1ccccc1)C(F)(F)F)C1CCCCC1 [Compound 5] , state whether its pIC50 is greater than or equal to 6.
Result block: f

Query block: Given CN[C@@H](C)C(=O)N[C@H](C(=O)N[C@H](C(=O)Nc1cc(C)nn1-c1ccccc1)C(C)(C)SCc1ccc(OC)cc1)C1CCCCC1 [Compound 16] , state whether its pIC50 is at least 6.
Result block: f

Query block: Entry CN[C@@H](C)C(=O)N[C@H](C(=O)N[C@H](C(=O)Nc1snnc1-c1ccccc1)C(C)(C)S(C)(=O)=O)C1CCCCC1 [Compound 10] : is its pIC50 no less than 6?
Result block: f

Query block: Record CN[C@@H](C)C(=O)N[C@H](C(=O)N[C@H](C(=O)Nc1snnc1-c1ccccc1)C(C)(C)SCNC(C)=O)C1CCCCC1 [Compound 21] ; criterion: pIC50 no lower than 6. Met?
Result block: t

---

measuredOn: C-IAP2 BIR3 (Homo sapiens, UniProt Q13489)
Construct: 0.4 μM C-IAP-2 BIR3
Sequence (Q13489 238-349 limits assumed): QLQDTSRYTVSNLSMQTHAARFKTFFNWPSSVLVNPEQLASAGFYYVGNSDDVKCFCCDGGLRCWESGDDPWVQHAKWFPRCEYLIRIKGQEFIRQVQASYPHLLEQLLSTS
protocolText: Fluorescence polarization peptide binding assay, C-IAP2 BIR3
assaySetup: 0.4 μM C-IAP-2 BIR3, 5 nM AVP-diPhe-FAM probe, one hour incubation
Entries get a class label from measured IC50. See ranges: low bracket = under 300 nM, middle bracket = from 300 nM up to 6000 nM, high bracket = 6000 nM and over

Some solved cases for reference:
| compoundString | assignedCategory |
| --- | --- |
| CN[C@@H](C)C(=O)N[C@H](C(=O)N[C@H](C(=O)Nc1sc(-c2cnccn2)nc1-c1ccccc1)C(C)(C)C)c1ccccc1 | high bracket |
| CN[C@@H](C)C(=O)N[C@H](C(=O)N[C@H](C(=O)NCC(c1ccccc1)c1ccccc1)C(F)(F)F)C1CCCCC1 | middle bracket |

Query block: For the record "CN[C@@H](C)C(=O)N[C@H](C(=O)N[C@H](C(=O)Nc1snnc1-c1ccccc1)C(C)(C)F)C1CCCCC1" , report the class its IC50 corresponds to.
Result block: low bracket

Query block: Would you mind sorting "CN[C@@H](C)C(=O)N[C@H](C(=O)N[C@H](C(=O)Nc1snnc1-c1ccccc1)C(C)(C)SCNC(C)=O)C1CCCCC1" into the appropriate category?
Result block: middle bracket

Query block: Class? Entry: "CN[C@@H](C)C(=O)N[C@H](C(=O)N[C@H](C(=O)NCC(c1ccccc1)c1ccccc1)C(C)(C)SCc1ccc(OC)cc1)C1CCCCC1"
Result block: high bracket

Query block: Record "CN[C@H](C)C(=O)N[C@@H](C(=O)N[C@@H](C(=O)NCC(c1ccccc1)c1ccccc1)C(C)(C)C)C1CCCCC1" — which class?
Result block: high bracket

Query block: Category lookup for the molecule "CN[C@@H](C)C(=O)N[C@H](C(=O)N[C@H](C(=O)NCC(c1ccccc1)c1ccccc1)C(C)(C)O)C(C)C"
Result block: high bracket

Query block: Each molecule maps to one class by IC50. Which class for "CN[C@@H](C)C(=O)N[C@H](C(=O)N(C)[C@H](C(=O)Nc1snnc1-c1ccccc1)C(C)(C)C)C1CCCCC1" ?
Result block: middle bracket

Query block: Band of "CN[C@@H](C)C(=O)N[C@H](C(=O)N[C@H](C(=O)Nc1snnc1-c1ccccc1)C(C)(C)SCc1ccc(OC)cc1)C1CCCCC1" ?
Result block: middle bracket

Query block: Hi, small favor: classify "CN[C@@H](C)C(=O)N[C@H](C(=O)N[C@H](C(=O)Nc1snnc1-c1ccccc1)C(C)(C)OC)C1CCCCC1" by its IC50 when you get a moment.
Result block: low bracket

Query block: In plain terms, what class is "CN[C@@H](C)C(=O)N[C@H](C(=O)N(C)[C@H](C(=O)Nc1snnc1-c1ccccc1)C(C)(C)SC)C1CCCCC1" ?
Result block: low bracket

Query block: Sort into band: "CN[C@@H](C)C(=O)N[C@H](C(=O)N(C)[C@H](C(=O)Nc1snnc1-c1ccccc1)C(C)C)C1CCCCC1"
Result block: low bracket

Query block: Field: class (IC50) — entry: "CN[C@@H](C)C(=O)N[C@H](C(=O)N[C@H](C(=O)NCC(c1ccccc1)c1ccccc1)C(C)(C)SC)C1CCCCC1"
Result block: high bracket

Query block: For the record "CN[C@@H](C)C(=O)N[C@H](C(=O)N[C@H](C(=O)NCC(c1ccccc1)c1ccccc1)C(C)(C)SCNC(C)=O)C1CCCCC1" , report the class its IC50 corresponds to.
Result block: middle bracket

Query block: Hello team, could you let me know which band the following molecule falls into: "CN[C@@H](C)C(=O)N[C@H](C(=O)N[C@H](C(=O)Nc1snnc1-c1ccccc1)C(F)(F)F)C1CCCCC1"
Result block: middle bracket
